For each record, write down the corresponding t½.
- TEST_TARGET: T1, human FGFR3b expressed with a C-terminal murine Fc tag (hFGFR3b.mFc) (human)
- T1 construct: called dimeric; also called REGN3153; dimeric human FGFR3b
- T1 chain: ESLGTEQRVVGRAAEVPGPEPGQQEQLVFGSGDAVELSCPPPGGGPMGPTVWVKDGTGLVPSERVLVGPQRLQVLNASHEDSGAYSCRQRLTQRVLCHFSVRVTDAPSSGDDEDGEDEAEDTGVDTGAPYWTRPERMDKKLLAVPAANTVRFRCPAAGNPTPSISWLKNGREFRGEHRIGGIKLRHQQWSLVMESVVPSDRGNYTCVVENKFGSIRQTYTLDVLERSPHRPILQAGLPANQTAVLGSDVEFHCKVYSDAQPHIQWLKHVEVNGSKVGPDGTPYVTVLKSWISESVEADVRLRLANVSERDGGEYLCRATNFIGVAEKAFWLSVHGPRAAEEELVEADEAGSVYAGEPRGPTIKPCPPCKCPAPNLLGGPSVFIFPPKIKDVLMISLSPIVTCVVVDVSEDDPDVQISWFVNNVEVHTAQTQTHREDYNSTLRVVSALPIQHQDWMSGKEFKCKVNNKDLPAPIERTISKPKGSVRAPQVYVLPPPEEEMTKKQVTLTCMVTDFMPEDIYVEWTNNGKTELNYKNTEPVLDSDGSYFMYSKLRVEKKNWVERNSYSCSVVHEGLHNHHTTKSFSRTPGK
- TEST_DETAILS: SPR Biacore, mAb captured on anti-hFc, 25C

| BINDER | t½ |
| --- | --- |
| H4H30076P (antibody, human IgG4 S228P, kappa, V domains shown) VH: EVQLVESGGGLVQPGGSLRLSCAASGFTVSSNYMSWVRQAPGKGLEWVSIIYSGGHTYYSDSVKGRFTISRHNSKNTLYLQMNSLRGGDTAVYYCARGYTSGWYGFDFWGQGTLVTVSS VL: DIQMTQSPSSVSASVGDRVTITCRASQGISTWLAWYQQKPGKAPKLLIYAASSLQSGVPSRFSGTGSGTDFTLTISSLQPEDFATYYCQQTNSFPWTFGQGTKVEIKR | ≥ 19.2 h |

# context switch: different binder, same t½
Ask: What t½ value was documented for this binder, H4H30071P (antibody, human IgG4 S228P, kappa, V domains shown, HCVR 42, LCVR 50) VH: QVQLQQSGPGLVKPSQTLSLTCAISGDSVSRNSAAWNWIRQSPSSGLEWLGRTYYRSKWFYDYAISVKSRITVNPDTSKNQFSLHLNSVTPEDTAVYYCARGYGGYEDYFDYWGQGTLVTVSS VL: DIQMTQSPSSVSASVGDRVTITCRASQGISSWLAWYQQKPGKAPKLLIYGASSLQSGVPSRFSGSGSGTDFTLTISSLQPEDFATYFCQQGSSFPYTFGQGTKLEIKR ?
Reply: ≥ 19.2 h
